Cited source for all entries: patent US20240376099A1

- Tgt: TLR9 (Homo sapiens)
- Construct: Fresh blood was collected from normal human donors; endogenous in cells; host or cells: human PBMCs from fresh donor blood
- Sequence (Q9NR96 26-1032): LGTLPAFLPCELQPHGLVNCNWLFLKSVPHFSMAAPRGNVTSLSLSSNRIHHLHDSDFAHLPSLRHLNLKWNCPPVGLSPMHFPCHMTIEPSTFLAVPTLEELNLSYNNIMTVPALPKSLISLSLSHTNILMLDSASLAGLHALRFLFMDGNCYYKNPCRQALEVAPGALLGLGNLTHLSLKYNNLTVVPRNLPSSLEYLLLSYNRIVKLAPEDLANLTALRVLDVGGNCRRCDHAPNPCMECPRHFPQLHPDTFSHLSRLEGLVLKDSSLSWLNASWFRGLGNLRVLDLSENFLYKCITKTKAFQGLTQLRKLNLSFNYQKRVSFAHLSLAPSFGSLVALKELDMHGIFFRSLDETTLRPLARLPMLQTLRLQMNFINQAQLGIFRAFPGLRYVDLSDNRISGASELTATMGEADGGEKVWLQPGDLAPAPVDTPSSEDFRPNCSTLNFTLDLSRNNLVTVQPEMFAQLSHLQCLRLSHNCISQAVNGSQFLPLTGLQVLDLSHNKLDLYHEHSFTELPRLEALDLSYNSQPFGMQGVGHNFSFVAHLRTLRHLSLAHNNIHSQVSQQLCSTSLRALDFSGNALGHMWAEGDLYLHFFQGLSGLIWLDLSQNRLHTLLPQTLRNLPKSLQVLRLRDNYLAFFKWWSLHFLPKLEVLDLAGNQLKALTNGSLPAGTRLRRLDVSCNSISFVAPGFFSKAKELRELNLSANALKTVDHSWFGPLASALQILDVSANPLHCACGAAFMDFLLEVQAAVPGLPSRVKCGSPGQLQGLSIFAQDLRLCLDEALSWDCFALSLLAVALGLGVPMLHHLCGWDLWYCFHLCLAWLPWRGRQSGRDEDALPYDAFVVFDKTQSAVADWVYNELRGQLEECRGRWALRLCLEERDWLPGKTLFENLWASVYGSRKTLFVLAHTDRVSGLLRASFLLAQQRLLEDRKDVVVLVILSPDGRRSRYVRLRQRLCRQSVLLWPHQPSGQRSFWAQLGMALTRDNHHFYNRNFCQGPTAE
- Test name: huPBMC TLR9 Antagonist IFNα Assay
- Assay type: cell-based
- Setup conditions: human PBMCs stimulated with ODN2216 0.3 μM, 14-16 hrs; IFNα2b AlphaLISA read-out
pIC50: −log10 of the molar value.
Value kind: pIC50

As a guide, the following entries are already answered.
INSERT INTO results (smiles_notation, measured_result) VALUES
  ('Cc1cc(N2CCc3c(c(C)nn3CC34CCC(N(C)C5CCC5)(CC3)CC4)C2)c2cnn(C)c2n1', 7.19),
  ('CCn1ncc2c(N3CCc4c(c(C)nn4CC45CCC(NC(=O)[C@@H]6COCCN6)(CC4)CC5)C3)cc(C)nc21', 5.29),
  ('CCOCCNC12CCC(Cn3nc(C)c4c3CCN(c3cc(C)nc5c3cnn5C)C4)(CC1)CC2', 6.31),
  ('Cc1c2c(nn1CC13CCC(N)(CC1)CC3)CCN(c1ccnc3[nH]ncc13)C2', 6.33),
  ('CN[C@@H](C)C(=O)NC12CCC(Cn3nc(C)c4c3CCN(c3cc(C)nc5c3cnn5C)C4)(CC1)CC2', 6.11),
  ('Cc1cc(N2CCc3c(c(C)nn3CC34CCC(NC(C)C)(CC3)CC4)C2)c2cnn(C)c2n1', 5.98),
  ('Cc1cc(N2CCc3c(c(C)nn3CC34CCC(NC(=O)CN5CC(F)C5)(CC3)CC4)C2)c2cnn(C)c2n1', 5.94);

(a) [2H]C([2H])([2H])N(CC(=O)NC12CCC(Cn3nc(C)c4c3CCN(c3cc(C)nc5c3cnn5C)C4)(CC1)CC2)C([2H])([2H])[2H]
(b) CNCC(=O)NC12CCC(Cn3nc(C)c4c3CCN(c3cc(C)nc5c3cnn5C)C4)(CC1)CC2
(c) CCNC12CCC(Cn3nc(C)c4c3CCN(c3cc(C)nc5c3cnn5C)C4)(CC1)CC2
Hey, quick one: sort these by pIC50, low to high? Respond with the label ranking, as requested.
b, c, a
